- experimentalTarget: human sweet taste receptor (hT1R2/hT1R3) coupled to Gα15 (Homo sapiens, UniProt Q7RTX0+Q8TE23)
- Construct: expressed in transfected cells
- Sequence (Q8TE23 20-839): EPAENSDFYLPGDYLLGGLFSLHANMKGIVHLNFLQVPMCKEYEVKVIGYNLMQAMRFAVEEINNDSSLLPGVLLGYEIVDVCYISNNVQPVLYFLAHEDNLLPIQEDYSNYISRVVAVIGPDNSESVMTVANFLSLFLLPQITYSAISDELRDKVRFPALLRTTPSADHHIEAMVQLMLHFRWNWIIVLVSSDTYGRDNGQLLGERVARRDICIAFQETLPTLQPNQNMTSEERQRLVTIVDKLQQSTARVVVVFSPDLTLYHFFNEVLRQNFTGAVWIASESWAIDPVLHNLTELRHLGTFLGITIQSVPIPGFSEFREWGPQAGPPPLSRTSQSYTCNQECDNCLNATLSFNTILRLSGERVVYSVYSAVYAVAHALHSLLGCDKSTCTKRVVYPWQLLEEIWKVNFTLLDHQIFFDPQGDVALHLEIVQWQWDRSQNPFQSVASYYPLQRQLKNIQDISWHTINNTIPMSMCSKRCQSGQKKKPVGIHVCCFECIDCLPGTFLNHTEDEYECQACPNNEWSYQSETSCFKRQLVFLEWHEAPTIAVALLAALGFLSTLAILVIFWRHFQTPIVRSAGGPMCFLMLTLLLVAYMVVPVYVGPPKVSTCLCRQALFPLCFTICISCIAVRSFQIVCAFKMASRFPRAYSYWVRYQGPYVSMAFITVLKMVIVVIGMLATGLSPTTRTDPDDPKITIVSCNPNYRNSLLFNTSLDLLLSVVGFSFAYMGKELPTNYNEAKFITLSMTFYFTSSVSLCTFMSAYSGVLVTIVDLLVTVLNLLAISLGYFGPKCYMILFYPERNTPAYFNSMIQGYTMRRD
- Sequence (Q7RTX0 21-852): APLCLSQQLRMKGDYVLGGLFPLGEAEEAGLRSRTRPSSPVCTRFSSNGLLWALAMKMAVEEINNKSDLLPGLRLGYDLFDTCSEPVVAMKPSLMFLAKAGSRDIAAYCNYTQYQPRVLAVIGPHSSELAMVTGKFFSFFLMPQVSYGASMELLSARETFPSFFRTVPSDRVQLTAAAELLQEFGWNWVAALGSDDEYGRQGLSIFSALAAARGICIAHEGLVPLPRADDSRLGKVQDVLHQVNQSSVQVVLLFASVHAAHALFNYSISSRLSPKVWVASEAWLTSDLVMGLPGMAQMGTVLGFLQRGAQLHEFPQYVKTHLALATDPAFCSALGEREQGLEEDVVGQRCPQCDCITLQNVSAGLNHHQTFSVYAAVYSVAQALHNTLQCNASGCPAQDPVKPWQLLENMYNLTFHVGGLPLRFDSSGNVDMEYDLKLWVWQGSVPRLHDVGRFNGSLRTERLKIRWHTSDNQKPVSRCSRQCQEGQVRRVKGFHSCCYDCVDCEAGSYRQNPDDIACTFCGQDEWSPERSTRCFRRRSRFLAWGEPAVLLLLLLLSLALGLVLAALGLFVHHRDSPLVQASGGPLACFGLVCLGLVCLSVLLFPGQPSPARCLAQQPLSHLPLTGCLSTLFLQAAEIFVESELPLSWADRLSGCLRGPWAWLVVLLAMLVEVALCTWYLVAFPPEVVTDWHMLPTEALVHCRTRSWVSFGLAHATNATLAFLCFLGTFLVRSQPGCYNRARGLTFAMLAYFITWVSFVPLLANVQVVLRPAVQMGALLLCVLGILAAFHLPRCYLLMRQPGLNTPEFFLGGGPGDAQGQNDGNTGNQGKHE
- protocolNotes: FLIPR calcium mobilization assay, R2/R3 U2OS cells transduced with Gα15 baculovirus
- Format: cell-based
- studyConditions: inverse log of ΔΔlogR, FLIPR-Gα15 vs DMR
Decide by Bias factor: equal to or exceeding 2 means 1.0, less means 0.0.

compound: CC(C)Oc1ccc(NC(=S)NCc2cccs2)cc1 [S5227]
labelClass: 1.0

Form field: Bias factor at least 2? Entry: C[C@@H](NC(=O)[C@@H](N)CC(=O)O)C(=O)NC1C(C)(C)SC1(C)C [Alitame]
0.0

Form field: Bias factor at least 2? Entry: COC(=O)[C@H](Cc1ccccc1)NC(=O)[C@H](CC(=O)O)NCCC(C)(C)C [Neotame]
1.0

Form field: Bias factor at least 2? Entry: CC1=CC(=O)NS(=O)(=O)O1 [acesulfame K]
0.0

Form field: Bias factor at least 2? Entry: CC(C)Oc1ccc(NC(=S)NCc2ccc[nH]2)cc1 [S819]
1.0

====

- experimentalTarget: human sweet taste receptor (hT1R2/hT1R3) coupled to Gα15 (Homo sapiens, UniProt Q7RTX0+Q8TE23)
- Construct: expressed in transfected cells
- Sequence (Q8TE23 20-839): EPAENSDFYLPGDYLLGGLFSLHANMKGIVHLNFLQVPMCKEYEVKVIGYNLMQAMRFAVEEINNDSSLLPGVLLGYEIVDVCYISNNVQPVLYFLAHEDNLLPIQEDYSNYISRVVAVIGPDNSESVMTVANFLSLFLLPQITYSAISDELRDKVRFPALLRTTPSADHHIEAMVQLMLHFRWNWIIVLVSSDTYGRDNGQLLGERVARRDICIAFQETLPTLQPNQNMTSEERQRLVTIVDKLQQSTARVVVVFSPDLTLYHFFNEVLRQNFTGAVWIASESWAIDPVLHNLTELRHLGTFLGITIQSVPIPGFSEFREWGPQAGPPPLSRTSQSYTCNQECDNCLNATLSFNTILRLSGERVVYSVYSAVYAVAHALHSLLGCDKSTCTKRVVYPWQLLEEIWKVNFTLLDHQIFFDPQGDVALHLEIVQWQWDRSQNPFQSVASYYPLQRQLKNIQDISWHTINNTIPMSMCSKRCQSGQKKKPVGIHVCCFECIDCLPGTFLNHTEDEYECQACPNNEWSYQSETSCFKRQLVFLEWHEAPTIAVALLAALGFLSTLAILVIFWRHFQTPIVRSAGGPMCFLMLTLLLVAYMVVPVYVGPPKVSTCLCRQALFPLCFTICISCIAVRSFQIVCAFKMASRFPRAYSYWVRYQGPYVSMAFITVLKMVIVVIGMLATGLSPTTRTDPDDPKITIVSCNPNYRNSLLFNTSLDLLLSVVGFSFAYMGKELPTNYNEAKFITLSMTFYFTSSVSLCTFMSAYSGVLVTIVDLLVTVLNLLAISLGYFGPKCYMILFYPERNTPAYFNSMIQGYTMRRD
- Sequence (Q7RTX0 21-852): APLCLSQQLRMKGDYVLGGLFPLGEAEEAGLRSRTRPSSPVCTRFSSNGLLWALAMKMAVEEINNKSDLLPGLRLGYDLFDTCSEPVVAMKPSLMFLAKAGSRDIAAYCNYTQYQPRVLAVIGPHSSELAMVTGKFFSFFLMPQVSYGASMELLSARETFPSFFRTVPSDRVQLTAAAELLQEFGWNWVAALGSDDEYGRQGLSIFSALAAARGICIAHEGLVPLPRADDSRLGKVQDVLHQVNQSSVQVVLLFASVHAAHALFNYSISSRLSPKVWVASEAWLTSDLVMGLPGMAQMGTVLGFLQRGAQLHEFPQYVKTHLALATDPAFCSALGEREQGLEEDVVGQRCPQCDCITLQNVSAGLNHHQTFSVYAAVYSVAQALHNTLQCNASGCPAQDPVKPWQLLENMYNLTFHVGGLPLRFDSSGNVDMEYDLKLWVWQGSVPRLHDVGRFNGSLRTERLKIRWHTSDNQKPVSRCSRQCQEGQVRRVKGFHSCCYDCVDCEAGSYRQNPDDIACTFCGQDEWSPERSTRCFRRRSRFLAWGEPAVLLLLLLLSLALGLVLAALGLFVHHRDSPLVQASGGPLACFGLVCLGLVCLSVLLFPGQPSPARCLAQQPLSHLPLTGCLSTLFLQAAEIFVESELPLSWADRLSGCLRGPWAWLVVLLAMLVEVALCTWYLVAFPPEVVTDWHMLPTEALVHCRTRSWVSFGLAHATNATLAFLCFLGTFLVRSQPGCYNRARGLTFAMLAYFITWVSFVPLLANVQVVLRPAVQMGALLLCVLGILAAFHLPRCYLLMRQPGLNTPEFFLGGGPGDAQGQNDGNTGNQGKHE
- protocolNotes: FLIPR calcium mobilization assay, R2/R3 U2OS cells transduced with Gα15 baculovirus
- Type: cell-based
- studyConditions: ΔlogR FLIPR-Gα15 minus ΔlogR DMR
# ΔΔlogR Mean per entry

compound: COC(=O)[C@H](Cc1ccccc1)NC(=O)[C@H](CC(=O)O)NCCC(C)(C)C [Neotame]
readoutValue: 0.50

compound: Cc1cc(C)c2c(c1)[C@H](NC(=O)c1conc1C)CCC2 [S679]
readoutValue: 0.08

compound: C[C@H](NC(=Nc1ccc(C#N)cc1)NCC(=O)O)c1ccccc1 [SC-45647]
readoutValue: 0.07

Value lookup for ΔΔlogR Mean; key = CCOc1ccc(NC(N)=O)cc1 [Dulcin]
0.18

====

- experimentalTarget: human sweet taste receptor (hT1R2/hT1R3) (Homo sapiens, UniProt Q7RTX0+Q8TE23)
- Construct: expressed in transfected cells
- protocolNotes: DMR assay (Epic reader) on R2/R3 U2OS cells, endogenous G proteins
- Format: cell-based
- studyConditions: top asymptote of dose-response normalized to 1 mM sucralose
readoutKind: Activity in DMR assay Emax
Give the figure only, with no unit attached.

compound: Cc1cc(C)c2c(c1)[C@H](NC(=O)c1conc1C)CCC2
readoutKind: Activity in DMR assay Emax
readoutValue: 133
//
compound: C=C1C[C@@]23CC[C@H]4[C@@](C)(CCC[C@@]4(C)C(=O)O[C@@H]4O[C@H](CO)[C@@H](O)[C@H](O)[C@H]4O)[C@@H]2CC[C@]1(O[C@@H]1O[C@H](CO)[C@@H](O)[C@H](O)[C@H]1O[C@@H]1O[C@H](CO)[C@@H](O)[C@H](O)[C@H]1O)C3 [Stevioside]
readoutKind: Activity in DMR assay Emax
readoutValue: 141
//
compound: COCc1cncc(-c2ccc(C(C)(C)C(=O)NCC(C)C)cc2)n1
readoutKind: Activity in DMR assay Emax
readoutValue: 130
//
compound: OC[C@H]1O[C@H](O[C@]2(CCl)O[C@H](CCl)[C@@H](O)[C@@H]2O)[C@H](O)[C@@H](O)[C@H]1Cl
readoutKind: Activity in DMR assay Emax
readoutValue: 122
//
compound: O=C1NS(=O)(=O)c2ccccc21
readoutKind: Activity in DMR assay Emax
readoutValue: 145
//
compound: CC1=CC(=O)NS(=O)(=O)O1
readoutKind: Activity in DMR assay Emax
readoutValue: 122

Turning to the following compound.
Value lookup for Activity in DMR assay Emax; key = C[C@@H](NC(=O)[C@@H](N)CC(=O)O)C(=O)NC1C(C)(C)SC1(C)C
106
